Attribution: paper PMC3652859

# Measured on: full-length NDM-1 (Klebsiella pneumoniae)
# Sequence (C7C422 29-270 limits assumed): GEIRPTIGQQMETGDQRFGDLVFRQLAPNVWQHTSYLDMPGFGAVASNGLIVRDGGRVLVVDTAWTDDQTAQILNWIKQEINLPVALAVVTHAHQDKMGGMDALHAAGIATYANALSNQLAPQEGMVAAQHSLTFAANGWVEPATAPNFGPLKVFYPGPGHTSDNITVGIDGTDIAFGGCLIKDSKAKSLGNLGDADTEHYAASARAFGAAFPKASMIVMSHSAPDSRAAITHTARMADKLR
# Assay type: biochemical, E. coli
# Design: The full-length NDM-1 enzyme was isolated to 95% purity as indicated by the SDS-PAGE; His6 tag (pET30a leader) (N, cleaved yes); made in house; host or cells: E. coli BL21 (DE3) carrying pET30a-NDM-1
# Test conditions: substrate hydrolysis; 20 mM HEPES pH 6.8, 30°C
Can you tell me K m for the items I'm about to list?
Give the quantity in µM, number only.

Fill in K m for record CC1(C)S[C@@H]2[C@H](NC(=O)[C@H](N)c3ccccc3)C(=O)N2[C@H]1C(=O)O [Ampicillin, ampicillin]
18

Complete the entry with K m for C[C@@H](O)[C@H]1C(=O)N2C(C(=O)O)=C(SCCN=CN)C[C@H]12 [Imipenem, imipenem]
127

For the molecule CC1(C)S[C@@H]2[C@H](NC(=O)Cc3ccccc3)C(=O)N2[C@H]1C(=O)O [Benzylpenicillin] , report K m.
13

Tell me measured K m for Cc1cc(O)c(C(=O)N[C@@H](C(=O)N[C@@H]2C(=O)N3C(C(=O)O)=C(CSc4nnnn4C)CS[C@H]23)c2ccc(O)cc2)cn1 [Cefpiramide, cefpiramide] please.
39

Determine its reported K m: C[C@@H](O)[C@H]1C(=O)N2C(C(=O)O)=C(S[C@@H]3CN[C@H](C(=O)N(C)C)C3)[C@H](C)[C@H]12 [Meropenem, meropenem]
68

Dear colleague, please send me the reported K m for CO/N=C(\C(=O)N[C@@H]1C(=O)N2C(C(=O)O)=CCS[C@H]12)c1csc(N)n1 [Ceftizoxime, ceftizoxime] when you can.
29

Supply recorded K m for CC(C)(O/N=C(\C(=O)N[C@@H]1C(=O)N2C(C(=O)[O-])=C(C[n+]3ccccc3)CS[C@H]12)c1csc(N)n1)C(=O)O [Ceftazidime, ceftazidime] here.
129
